Known z-score of a selection of molecules
# measurement_description: viability profiling in RPMI8226 myeloma cells – cell-based, resazurin fluorescence, basal, 24 h, PK04 Diversity Set, profiling panel (AID 1180);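 note: RPMI8826 multiple myeloma cell line at 5000 cells per well; test concentration not given here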
# particulars: higher = more signal

These recorded examples may help you get a feel for the data.
{"molecule": "O=C1OCC=C[C@H]2OC34C=CCN(Cc5ccccc5)C(=O)[C@H]3N(CCCO)C(=O)[C@@H]4[C@@H]12 (stereo partly drawn)", "z-score": -0.0906}
{"molecule": "O=C1OCC=C[C@H]2OC34C=CCN(c5ccc6ccccc6c5)C(=O)[C@H]3N(CCO)C(=O)[C@@H]4[C@@H]12 (stereo partly drawn)", "z-score": 0.403}
{"molecule": "O=C(NCc1ccccc1)[C@@H]1c2ccccc2C(=O)N(C2CCCCC2)[C@H]1c1ccc(CO)cc1", "z-score": -1.7}
{"molecule": "Cc1ccc(S[C@]2(C(=O)NCCN3CCOCC3)CC(=O)N(C3CCCCC3)[C@@H]2c2ccc(CO)cc2)cc1", "z-score": 0.838}
{"molecule": "[N-]=[N+]=Nc1ccccc1[C@H]1OC(c2ccc(OCCCO)cc2)=N[C@@]1(CCS(=O)(=O)c1ccccc1)C(=O)N1CCOCC1", "z-score": -1.33}
{"molecule": "COCCn1c(C(=O)N2CCCC2)cc2c1C[C@H]1CN(C(=O)c3ccccc3)[C@@](Cc3ccc(OC)cc3)(C(=O)OC)[C@@H]21", "z-score": -0.939}

Task item: Would you kindly share the measured z-score for `C=CCNC(=O)[C@H]1[C@@H]2C(=O)O[C@@H](c3ccccc3)[C@@H](c3ccccc3)N2[C@@H](c2ccc(O)cc2)[C@]12C(=O)Nc1ccc(C#Cc3ccc(OC)cc3)cc12` ?
Reply: -3.24

Task item: Would you kindly share the measured z-score for O=C1C2C=CC(C(O)c3ccc(-c4ccccc4)s3)N(Nc3ccccc3F)C2C(=O)N1c1ccccc1 (stereo not drawn) ?
Reply: -1.6

Task item: Would you kindly share the measured z-score for `NC(=O)[C@]1(Cc2ccccc2)N=C(c2ccc(OCCCO)cc2)O[C@@H]1c1ccccc1` ?
Reply: -0.189

Task item: Would you kindly share the measured z-score for COc1cc2c(cc1O)C(c1ccc(CN3CCCC3)cc1)N(Cc1sc3ccccc3c1Cl)CC2 (stereo not drawn) ?
Reply: -1.05

Task item: Would you kindly share the measured z-score for `[N-]=[N+]=Nc1ccccc1[C@@H]1OC(c2ccc(OCCCO)cc2)=N[C@]1(CCS(=O)(=O)c1ccccc1)C(=O)N1CCCCC1` ?
Reply: -1.81

Task item: Would you kindly share the measured z-score for C=CCC(OC(C)=O)[C@@H]1[C@@H](N(Cc2cc3ccccc3o2)C(=O)c2ccc(C)cc2)c2cc(OCCCO)ccc2N1C(=O)c1ccc(-c2ccccc2)cc1 (stereo partly drawn) ?
Reply: 1.07

Task item: Would you kindly share the measured z-score for `C=CCN1C(=O)[C@@]2(O[C@@H](CCO)[C@H]([Si](C)(C)c3ccc(OC)cc3)[C@H]2C)c2cc(N3C(=O)COc4ccccc43)ccc21` ?
Reply: -6.27

Task item: Would you kindly share the measured z-score for `CN(C)CCCC[C@@H]1NC(=O)[C@H]2C[C@@H](C(=O)NCCCCCNC(=O)CS)[C@@H](c3ccc(O)cc3)N2C1=O` ?
Reply: 0.108

Task item: Would you kindly share the measured z-score for `CCOC(=O)C1=C[C@@H](C(C)(C)C)N(S(=O)(=O)c2ccc(C)cc2)[C@H]1c1ccc(Cl)c(Cl)c1` ?
Reply: -2.92

Task item: Would you kindly share the measured z-score for `CCCNC(=O)[C@@]1(C)c2ccccc2C(=O)N(Cc2ccc(OC(F)(F)F)cc2)[C@H]1c1ccc(CO)cc1` ?
Reply: 0.325

Task item: Would you kindly share the measured z-score for `C[N+](C)(C)CCCC[C@@H]1NC(=O)[C@H]2C[C@@H](C(=O)O)[C@@H](c3cccc(OCCO)c3)N2C1=O` ?
Reply: 0.773

Task item: Would you kindly share the measured z-score for `Cc1ccc(S[C@]2(C(=O)NCC(F)(F)F)CC(=O)N(C3Cc4ccccc4C3)[C@@H]2c2ccc(CO)cc2I)cc1` ?
Reply: -1.32

Task item: Would you kindly share the measured z-score for `COCCOC(=O)N1C(=O)[C@@]2(c3cc(C#CCCO)ccc31)[C@H](c1ccc(O)cc1)N1[C@H](c3ccccc3)[C@H](c3ccccc3)OC(=O)[C@H]1[C@@H]2C(=O)N1CCCCCCC1` ?
Reply: -0.98

Task item: Would you kindly share the measured z-score for CCN(CC)c1ccc(N2CC=CC34O[C@@H]5C=CCCOC(=O)C5[C@H]3C(=O)N(CCCO)[C@@H]4C2=O)cc1 (stereo partly drawn) ?
Reply: 0.237

Task item: Would you kindly share the measured z-score for `C=CCOC(=O)[C@@H]1[C@H]2C(=O)O[C@H](c3ccccc3)[C@H](c3ccccc3)N2[C@H](c2ccc(OCCOC(=O)[C@H]3C[C@H]4C(=O)N[C@@H](Cc5ccccc5)C(=O)N4[C@H]3c3ccc(O)cc3)cc2)[C@@]12C(=O)Nc1ccc(I)cc12` ?
Reply: -1.01

Task item: Would you kindly share the measured z-score for CN1C(=O)C2C=CC(C(O)C3=C[C@H]4C[C@@H](C3)C4(C)C)N(Nc3ccc([N+](=O)[O-])cc3[N+](=O)[O-])C2C1=O (stereo partly drawn) ?
Reply: 0.116

Task item: Would you kindly share the measured z-score for `O=C(NCC(F)(F)F)[C@@H]1c2ccccc2C(=O)N(Cc2ccccc2)[C@H]1c1ccc(CO)cc1` ?
Reply: 0.368

Task item: Would you kindly share the measured z-score for O=C1C2C=CC(C(O)C3CC=CCC3)N(n3cnnc3)C2C(=O)N1Cc1ccccc1 (stereo not drawn) ?
Reply: -1.45

Task item: Would you kindly share the measured z-score for C=CCC(OC(C)=O)[C@@H]1[C@@H](N(Cc2ccc(-c3ccccc3)cc2)C(=O)c2ccc(C)cc2)c2cc(OCCCO)ccc2N1C(=O)c1ccc2ccccc2n1 (stereo partly drawn) ?
Reply: 0.924

Task item: Would you kindly share the measured z-score for `CN(C)CCCCCCNC(=O)[C@@H]1C[C@@H]2C(=O)N[C@@H](Cc3ccccc3)C(=O)N2[C@@H]1c1cccc(OCCO)c1` ?
Reply: -0.592

Task item: Would you kindly share the measured z-score for `COc1ccc([Si](C)(C)[C@H]2[C@H](CCO)O[C@@]3(C(=O)N(Cc4ccccc4)c4ccc(N5C(=O)COc6ccccc65)cc43)[C@@H]2C)cc1` ?
Reply: -3.14

Task item: Would you kindly share the measured z-score for `C=C(CCCC)C(=O)CC[C@H](OC(C)=O)c1ccc(CO)o1` ?
Reply: 0.496

----------
# target_or_test_system: Torsin-1A-interacting protein 2 (Homo sapiens)
# measurement_description: small molecules binding lysate-expressed LULL1 – cell lysate, human LULL1 lysate, 635/667 nm fluorescence, primary screen (AID 1092);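 note: probe is lysate of COS7 cells overexpressing human LULL1; score merges per-feature 667 nm fluorescence with signal-to-noise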
# particulars: small-molecule microarray, hLULL1 lysate binding, 635 nm fluorescence; higher = more signal
Known composite z-score of a selection of molecules
When you answer, write just the number.

These recorded examples may help you get a feel for the data.
{"molecule": "COCCCNC(=O)[C@@]1(C)c2ccccc2C(=O)N(Cc2ccccc2)[C@H]1c1ccc(CO)cc1", "composite z-score": 3.43}
{"molecule": "CO[C@H]1O[C@H](CO)[C@@H](OC(=O)Nc2ccc3c(c2)OCO3)[C@H](OC(=O)Nc2ccc3c(c2)OCO3)[C@H]1OC(=O)Nc1ccc2c(c1)OCO2", "composite z-score": 3.5}
{"molecule": "Cc1ccc(S[C@]2(C(=O)NCCCN(C)C)CC(=O)N(Cc3ccccc3)[C@@H]2c2ccc(CO)cc2)cc1", "composite z-score": 2.01}
{"molecule": "C=C(C(=O)CC[C@@H](OC(C)=O)c1ccc(OCCO)cc1)C(C)C", "composite z-score": 1.45}
{"molecule": "[N-]=[N+]=Nc1ccccc1C[C@]1(C(=O)N2CCCCC2)N=C(c2ccc(OCCCO)cc2)O[C@H]1c1ccccc1N=[N+]=[N-]", "composite z-score": 3.48}

Task item: Request body: readout composite z-score, system Torsin-1A-interacting protein 2 (Homo sapiens), query `COCC1=C([C@H](O)CCc2ccccc2)[C@H](CO)[C@@H]2C(=O)N(Cc3ccccc3)C(=O)[C@@H]2C1` . Return the value.
Reply: -0.0602

Task item: Request body: readout composite z-score, system Torsin-1A-interacting protein 2 (Homo sapiens), query `Cc1ccc(S[C@]2(C(=O)NCC(C)C)CC(=O)N(Cc3ccccc3)[C@@H]2c2ccc(CO)cc2)cc1` . Return the value.
Reply: 1.86

Task item: Request body: readout composite z-score, system Torsin-1A-interacting protein 2 (Homo sapiens), query `C=C[C@@H](C)[C@@H](OC(=O)Nc1ccc(OC)cc1)c1ccc(O)c2ccccc12` . Return the value.
Reply: 1.15

Task item: Request body: readout composite z-score, system Torsin-1A-interacting protein 2 (Homo sapiens), query `O=C(NCc1ccccc1)[C@@H]1c2ccccc2C(=O)N(C2CCCCC2)[C@H]1c1ccc(CO)cc1` . Return the value.
Reply: 2.53

Task item: Request body: readout composite z-score, system Torsin-1A-interacting protein 2 (Homo sapiens), query `C=CCOC(=O)[C@@H]1[C@H]2C(=O)O[C@H](c3ccccc3)[C@H](c3ccccc3)N2[C@H](c2ccc(OCCOC(=O)[C@H]3C[C@H]4C(=O)N[C@@H](CC(C)C)C(=O)N4[C@H]3c3cccc(OCCO)c3)cc2)[C@@]12C(=O)Nc1ccc(I)cc12` . Return the value.
Reply: 2.66
